Listed here: items and their measured IC50.
System: Jurkat (FADD−/−) cells
assay.name: Inhibition of TNF-induced programmed Jurkat (FADD−/−) cell necrosis (Cell Titer-Glo)
Type: cell-based, human
experimental.setup: Homo sapiens, Jurkat, 20 h, TNF 10 ng/mL, intracellular ATP level, read-out: Cellular IC50 (M) Jurkat (FADD−/−)
readout.label: IC50

CN1C(=O)[C@@H](NC(=O)c2cnnn2Cc2ccccc2)CSc2cc3c(ccn3C)cc21 :: > 2e-06 M
CN1C(=O)[C@@H](NC(=O)c2cn(Cc3ccccc3)nn2)CSc2cc3c(ccn3Cc3ccccc3)cc21 :: > 2e-06 M
CN1C(=O)[C@@H](NC(=O)c2cnn(Cc3ccccc3)c2)COc2cc3[nH]c(=O)[nH]c3cc21 :: > 2e-06 M
